Where these numbers come from: PubChem BioAssay AID1159580

test.description: chemical genetic growth profiling, strain panel (AID 1159580);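 also: tested at 20 µM; growth read once vehicle control cultures reached saturation at 30 °C; 1 = growth at the plate median or of vehicle wells; lower values mean less growth of the strain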
settings: S. cerevisiae deletion strains, growth OD, locus YKL068W, stronger effect = lower value
In all, about 5,500 compounds went through this assay and about 2,000 (36%) were called active. About 18% were inconclusive and are not listed. This is one part of the list.

- compound: "COc1ccc(-c2oc3c(CC=C(C)C)c(O[C@@H]4O[C@H](CO)[C@@H](O)[C@H](O)[C@H]4O)cc(O)c3c(=O)c2O[C@@H]2O[C@@H](C)[C@H](O)[C@@H](O)[C@H]2O)cc1"
  normalized growth: 0.986
- compound: "Oc1cc2c(cc1O)C1c3ccc(O)c(O)c3OCC1(O)C2 (centres undefined)"
  normalized growth: 0.983
- compound: "CC(C)(C)NCC(O)c1cc(Cl)c(N)c(Cl)c1 (centres undefined)"
  normalized growth: 1
- compound: "COc1ccc(-c2oc3cc(O[C@H]4O[C@H](CO)[C@@H](O)[C@H](O)[C@H]4O)c(OC)c(O)c3c(=O)c2OC)cc1O"
  normalized growth: 0.99
- compound: "CC(=O)[C@@]1(O)CCC2C3C[C@H](C)C4=CC(=O)C=CC4(C)[C@@]3(F)[C@@H](O)C[C@@]21C (some centres undefined)"
  normalized growth: 1.01
- compound: "NC(=O)NCC(N)C(=O)O (centres undefined)"
  normalized growth: 0.997
- compound: "C[C@@H]1O[C@@H](OC[C@H]2OC(Oc3c(-c4ccc(O)c(O)c4)oc4cc(O)cc(O)c4c3=O)[C@H](O)[C@@H](O)[C@@H]2O)[C@H](O)[C@H](O)[C@H]1O (some centres undefined)"
  normalized growth: 0.982
- compound: "CCOC(=O)NC1=C(C2CC2)C(=O)C(NC(=O)OCC)=C(C2CC2)C1=O"
  normalized growth: 0.98
- compound: "CC(=O)Oc1ccc2c(c1OC(C)=O)OCC1(O)Cc3c(cc(OC(C)=O)c(OC(C)=O)c3OC(C)=O)C21 (centres undefined)"
  normalized growth: 0.994
